assay: Plasma pharmacokinetics after single oral dose in ORA-Plus or SyrSpend SF (Example 6), LC-MS/MS; assay type: in vivo, Sprague Dawley rats; conditions: female, Sprague-Dawley, rat, plasma, po, 48 mg/kg, G8: free base, 48 mg/kg single oral dose, SyrSpend, rat plasma
measure-name: Tmax (h)
Give the number; h is assumed, so skip it.

# get_value(readout='Tmax', item= CC(C)(C)CNCCn1c(Sc2cc3c(cc2I)OCO3)nc2c(N)ncnc21 )
3.4

###

assay: Plasma pharmacokinetics after single oral dose in ORA-Plus or SyrSpend SF (Example 6), LC-MS/MS; format: in vivo, Sprague Dawley rats; conditions: female, Sprague-Dawley, rat, plasma, po, 48 mg/kg, G8: free base, 48 mg/kg single oral dose, SyrSpend, rat plasma
measure-name: half-life
Note: state the figure and append the unit.

# get_value(readout='half-life', item= CC(C)(C)CNCCn1c(Sc2cc3c(cc2I)OCO3)nc2c(N)ncnc21 [Compound 2] )
214 min

###

assay: Plasma pharmacokinetics after single PO or IV administration (Example 5), LC-MS/MS; conditions: female, Sprague Dawley, rat, plasma, po, 36 mg/kg, Tmax (hr) Mean ± StdDev, Group 6: 36 mg/kg PO, 60 mM Citric acid buffer + 30% Captisol; free base
measure-name: Tmax (h)
Give the number; h is assumed, so skip it.

# get_value(readout='Tmax', item= CC(C)(C)CNCCn1c(Sc2cc3c(cc2I)OCO3)nc2c(N)ncnc21 )
2.4

###

assay: Plasma pharmacokinetics after single oral dose in ORA-Plus or SyrSpend SF (Example 6), LC-MS/MS; assay type: in vivo, Sprague Dawley rats; conditions: female, Sprague Dawley, rat, plasma, po, 60 mg/kg, G11: 2HCl, 60 mg/kg single oral dose, SyrSpend, rat plasma; n = 4
measure-name: AUC(0-inf) (ng·h/mL)
Give the number; ng·h/mL is assumed, so skip it.

# get_value(readout='AUC(0-inf)', item= CC(C)(C)CNCCn1c(Sc2cc3c(cc2I)OCO3)nc2c(N)ncnc21 [Compound 2 2HCl] )
4950

###

assay: Plasma pharmacokinetics after single PO or IV administration (Example 5), LC-MS/MS; conditions: female, Sprague-Dawley, rat, plasma, po, 24 mg/kg, Cmax (ng/mL) Mean ± StdDev, Group 1: 24 mg/kg PO, ORA-Plus; free base, single dose
measure-name: Cmax (ng/mL)
Give the number; ng/mL is assumed, so skip it.

# get_value(readout='Cmax', item= CC(C)(C)CNCCn1c(Sc2cc3c(cc2I)OCO3)nc2c(N)ncnc21 )
321

###

test: Plasma pharmacokinetics after single PO or IV administration (Example 5), LC-MS/MS; conditions: female, Sprague-Dawley, rat, plasma, po, 48 mg/kg, Cmax (ng/mL) Mean ± StdDev, Group 16: 48 mg/kg PO, 0.5% Methylcellulose in water; dosed as 2HCl
measure-name: Cmax (ng/mL)
Give the number; ng/mL is assumed, so skip it.

# get_value(readout='Cmax', item= CC(C)NCCCn1c(Sc2cc3c(cc2I)OCO3)nc2c(N)ncnc21 )
1650

###

assay: Plasma pharmacokinetics after single PO or IV administration (Example 5), LC-MS/MS; conditions: female, Sprague Dawley, rat, plasma, po, 60 mg/kg, Tmax (hr) Mean ± StdDev, Group 8: 60 mg/kg PO, 60 mM Citric acid buffer + 30% Captisol; free base
measure-name: Tmax (h)
Give the number; h is assumed, so skip it.

# get_value(readout='Tmax', item= CC(C)(C)CNCCn1c(Sc2cc3c(cc2I)OCO3)nc2c(N)ncnc21 )
4.4

# credit: patent US20200069592A1
